Target: T1, full length human OX40L expressed on CHO cells (human, UniProt P23510 1-183)
T1 sequence: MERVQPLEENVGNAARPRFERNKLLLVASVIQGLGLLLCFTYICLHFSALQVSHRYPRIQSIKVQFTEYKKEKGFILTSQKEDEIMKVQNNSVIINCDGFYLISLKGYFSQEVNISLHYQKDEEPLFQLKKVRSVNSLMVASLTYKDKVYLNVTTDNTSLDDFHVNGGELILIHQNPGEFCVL
Assay: cell-based or functional assay
The reader will find reported IC50, IL4 production, T-cell activation assay, donor 1 values listed item by item below.
Observation type: IC50, IL4 production, T-cell activation assay, donor 1

| Binder | Value |
| --- | --- |
| OX40L15B07 (VHH, monovalent Nanobody from E. coli; not shown: C-terminal c-myc and His6 tag) VHH: EVQLVESGGGLVQAGGSLRLSCAASRSIGRLDRMGWYRHRTGEPRELVATITGGSSINYGDFVKGRFTISIDNAKNTVYLQMNNLKPEDTAVYYCNFNKYVTSRDTWGQGTQVTVSS | 236 nM |
| OX40L19D08 (VHH, monovalent Nanobody from E. coli; not shown: C-terminal c-myc and His6 tag) VHH: EVQLVESGGGLVQAGASLRLSCAASGRRFISNYAMGWFRQAPGQERAFVAAISRSGSITYYTDSVKGRFSISRDYAKSTVYLQMDNLKPEDTAVYYCAADGGAVRDLTTNLPDYWGRGTQVTVSS | 90 nM |
| OX40L01E10 (VHH, monovalent Nanobody from E. coli; not shown: C-terminal c-myc and His6 tag) VHH: EVQLVESGGGLVQAGDSLRLSCAASGLTFSSFAMGWFRQAPGKEREFVAAISRSGYGTSEADSVRDRFIISRDNAKNTVTLHLSRLKPEDTAVYYCAAEHTLGRPSRSQINYLYWGQGTQVTVSS | 110 nM |
| anti-OX40L benchmark Fab (Fab, V domains shown, papain digest of benchmark IgG; also called LC001 Fab) VH: EVQLLESGGGLVQPGGSLRLSCAASGFTFNSYAMSWVRQAPGKGLEWVSIISGSGGFTYYADSVKGRFTISRDNSRTTLYLQMNSLRAEDTAVYYCAKDRLVAPGTFDYWGQGALVTVSS VL: DIQMTQSPSSLSASVGDRVTITCRASQGISSWLAWYQQKPEKAPKSLIYAASSLQSGVPSRFSGSGSGTDFTLTISSLQPEDFATYYCQQYNSYPYTFGQGTKLEIKR | 80 nM |
